I'd appreciate it if you could supply IC50 values for the items below.
Kindly answer with a numeric value in nM, unit omitted.

**Q:** Return IC50 measured with Tyrosine-protein kinase ITK/TSK (Homo sapiens) given this compound: `C[C@@H](C(=O)N(C)c1cnc2[nH]c(-c3n[nH]c4c3CCC(C)(C)C4)nc2c1)N1CCOCC1`
Sequence (Q08881 whole entry): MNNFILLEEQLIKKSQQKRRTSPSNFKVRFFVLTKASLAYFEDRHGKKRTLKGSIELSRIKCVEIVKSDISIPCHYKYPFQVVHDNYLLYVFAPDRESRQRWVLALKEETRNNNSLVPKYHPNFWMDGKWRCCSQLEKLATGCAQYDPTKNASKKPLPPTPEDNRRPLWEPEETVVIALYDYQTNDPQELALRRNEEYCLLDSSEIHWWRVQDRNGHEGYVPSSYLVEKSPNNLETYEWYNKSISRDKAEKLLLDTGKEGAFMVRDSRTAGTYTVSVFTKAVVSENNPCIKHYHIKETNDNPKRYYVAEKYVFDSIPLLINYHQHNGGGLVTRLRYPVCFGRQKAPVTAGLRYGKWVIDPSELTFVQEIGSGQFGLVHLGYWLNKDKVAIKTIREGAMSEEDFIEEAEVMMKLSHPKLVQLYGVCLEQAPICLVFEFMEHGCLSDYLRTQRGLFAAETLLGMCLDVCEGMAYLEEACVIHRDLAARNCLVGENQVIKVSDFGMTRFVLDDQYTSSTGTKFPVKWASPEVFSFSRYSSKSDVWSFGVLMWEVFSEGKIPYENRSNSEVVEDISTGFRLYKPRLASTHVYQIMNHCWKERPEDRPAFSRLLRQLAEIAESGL
**A:** 147

**Q:** Return IC50 measured with Tyrosine-protein kinase ITK/TSK (Homo sapiens) given this compound: `CCN(C(=O)[C@H](C)C1CCOCC1)c1cnc2[nH]c(-c3n[nH]c4c3CCC(C)(C)C4)nc2c1`
**A:** 28

**Q:** Return IC50 measured with Tyrosine-protein kinase ITK/TSK (Homo sapiens) given this compound: `CN(C(=O)CC1CC2(C1)CC(F)(F)C2)c1cnc2nc(-c3n[nH]c4c3C[C@@H]3C[C@]3(C)C4)[nH]c2c1`
**A:** 62

**Q:** Return IC50 measured with Tyrosine-protein kinase ITK/TSK (Homo sapiens) given this compound: `CCc1nc2[nH]c(-c3n[nH]c4c3C[C@@H]3C[C@]3(C)C4)nc2cc1N(C)C(=O)CN1CCOCC1`
**A:** 147
